Molecular target: T1, SARS-CoV2 Spike ecto foldon Trimer expressed with a C-terminal myc-myc-hexahistidine (SARS-CoV-2, UniProt P0DTC2 14-1213)
T1 construct: extracellular domain
Assay: SPR Biacore, mAb captured by anti-hFc, 37C
quantity: t½

| binder | quantity | experimentalResult |
| --- | --- | --- |
| mAb14312 (antibody, V domains shown) VH: EVQLVESGGGLVQPGGSLRLSCAASGFTVSRSYMTWVRQAPGKGLEWVSVIFTGGRTDHADSVKGRFTISRHNSKNTLYLQMNSLRTEDTAVYYCARVAIVGATGAFDIWGQGTMVTVSS VL: QSVLTQPPSVSGAPGQRVTISCTGSSSNIGAGDDVHWYQQLPGTAPKLLIYGNSNRPSGVPDRFSGSKSGTSASLAITGLQAEDEADYYCQSYDSSLSGSVVFGGGTKLTVLG | t½ | 3.54 h |
| mAb14284 (antibody, V domains shown) VH: QITLKESGPTLVKPTQTLTLTCTFSGFSFSTSGVGVGWIRQPPGKTLEWLALIYWDDDKRYSPSLKSRLTITKDTSKNQVVLTMTNMDPVDTATYFCAHHGIPTIFGYWGQGALVTVSS VL: QSALTQPASVSGSPGQSITISCTGTSSDLGVFNYVSWYQQHPGKAPKLMIYEVTNRPSGVSNRFSGSKSGNTASLTISGLQAEDEADYYCSSYTTSSTVFGGGTKLTVLG | t½ | 9.41 h |
| mAb14256 (antibody, V domains shown) VH: QVQLQESGPGLVKPSETLSLTCTVSGGSISSHYWSWIRQPPGKGLEWIGYIYYSGSSNYNPSLKSRVTISVDTSKNQFSLKLNSVTAADTAVYYCARHYDILTGFDWFDPWGQGTLVTVSS VL: QSVLTQPPSVSGAPGQRVTISCTGSSSNIGTHYDVHWYQQLPGTAPKLLIYGNSNRPSGVPDRFSGSKSGTSASLAITGLQAEDEADYYCQSFDNSLTAPYVFGTGTKVTVLG | t½ | 0.795 h |
